Experiment: Determination of moisture contents with KF moisture meter at different time points
Assay type: physicochemical
Details: temperature 23° C., humidity 92.5%, 30 min
# key: entry, value: moisture content (%)
attribute.measured: moisture content (%)

1. C[C@H](O)CC(=O)O.C[C@H](O)CC(=O)[O-].C[C@H](O)CC(=O)[O-].[Ca+2]
0.52
2. C[C@@H](O)CC(=O)O.C[C@@H](O)CC(=O)[O-].[K+]
0.64
3. C[C@H](O)CC(=O)[O-].[K+] [Potassium S-3-hydroxybutyrate, potassium S-3-hydroxybutyrate]
1.06
4. C[C@H](O)CC(=O)[O-].C[C@H](O)CC(=O)[O-].[Ca+2] [Calcium S-3-hydroxybutyrate, calcium S-3-hydroxybutyrate]
0.88
5. C[C@H](O)CC(=O)O [S-3-hydroxybutyric acid]
1.23
6. C[C@@H](O)CC(=O)O.C[C@@H](O)CC(=O)[O-].C[C@@H](O)CC(=O)[O-].[Mg+2]
0.57
7. CC[C@H](O)CC(=O)[O-].[Na+] [Sodium S-3-hydroxypentanoate, sodium S-3-hydroxypentanoate]
0.91
8. CCC(O)CC(=O)O (centres unmarked) [3-hydroxypentanoic acid]
1.10

----------
# key: entry, value: moisture content (%)
Assay: Determination of moisture contents with KF moisture meter at different time points
Assay type: physicochemical
Conditions: temperature 23° C., humidity 92.5%, 6 h
attribute.measured: moisture content (%)

1) CC[C@@H](O)CC(=O)O.CC[C@@H](O)CC(=O)[O-].[Na+]
4.08
2) C[C@@H](O)CC(=O)[O-].[K+] [Potassium R-3-hydroxybutyrate, potassium R-3-hydroxybutyrate]
7.65
3) C[C@H](O)CC(=O)O.C[C@H](O)CC(=O)[O-].C[C@H](O)CC(=O)[O-].[Mg+2]
4.58
4) CCC(O)CC(=O)O.CCC(O)CC(=O)[O-].[Na+] (stereo not shown)
4.16

----------
Assay: Determination of moisture contents with KF moisture meter at different time points
Format: physicochemical
Details: temperature 23° C., humidity 92.5%, 4 h
# key: entry, value: moisture content (%)
attribute.measured: moisture content (%)

1. CC[C@H](O)CC(=O)O.CC[C@H](O)CC(=O)[O-].[Na+]
2.73
2. C[C@H](O)CC(=O)[O-].C[C@H](O)CC(=O)[O-].[Ca+2] [Calcium S-3-hydroxybutyrate, calcium S-3-hydroxybutyrate]
4.18
3. CCC(O)CC(=O)O.CCC(O)CC(=O)[O-].[Na+] (stereo not drawn)
2.82

FYI, the data here is from patent US20260184662A1.
